# STUDY TARGET: Alpha-synuclein (Homo sapiens, UniProt P37840)

| MOLECULE | IC50 / µM |
| --- | --- |
| c1ccc2c(c1)Nc1ccccc1S2 [PHENOTHIAZINE] | 26 |
